B1: EPB41L3 (parent)
chain: SELGDYDPDECGSDYISEFRFAPN

# Variants of: B1
# ASSAY_OVERVIEW: protein stability index of a GFP-peptide fusion (GPS, HEK-293T) (PSI 1-6); higher = more stable;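 further: lentivirally expressed fusions sorted by FACS into six bins by GFP to DsRed ratio, PSI derived from sequencing read proportions per bin multiplied by bin number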
# RUN_PARAMETERS: c terminus: a fixed tail appended

MUTATION_LIST	protein stability index
S17M	2.11
F21R	4.64
E10G	1.78
F21Q	4.97
S17V	2.2
D7S	1.47
R20M	3.92
I16K	3.37
I16C	3.41
S1V	2.25
D7E	3.01
D14C	1.89
P23L	2.81
I16E	4.6
Y15L	2.35
E2I	1.7
Y6N	2.15
E2G	1.03
E10F	1.55
S17K	2.32
Y6S	2.11
D5Y	2.09
